- assayRemarks: Percent inhibition against DNA polymerase alpha when activated DNA was used as template at 50 uM concentration
Give inhibition for every item shown.
Numbers only, in %.

Worked cases, answers included:
1. Br.CCn1cc(NC=O)cc1C(=O)Nc1cc(C(=O)Nc2cc(C(=O)NCCC(=N)N)n(C)c2)n(C)c1 : 42
2. Br.CN(C)C(=N)CCNC(=O)c1cc(NC(=O)c2cc(NC(=O)c3cc(NC=O)cn3C)cn2C)cn1C : 41

Kindly consider the entry below.
The reported value for Br.CCn1cc(NC(=O)c2cc(NC=O)cn2C)cc1C(=O)Nc1cc(C(=O)NCCC(=N)N)n(C)c1 in terms of inhibition is 34

---

Give inhibition for every item shown.
- Test system: Nucleic Acid
- assayRemarks: Percent inhibition against DNA polymerase alpha when (dT)n-(rA)12-18 sequence was used as template at 50 uM concentration
- Format: nucleic-acid assay

Worked cases, answers included:
1. Br.Cn1cc(NC=O)cc1C(=O)Nc1cc(C(=O)Nc2c[nH]c(C(=O)NCCC(=N)N)c2)n(C)c1 : 75%
2. Br.CCn1cc(NC=O)cc1C(=O)Nc1cc(C(=O)Nc2cc(C(=O)NCCC(=N)N)n(C)c2)n(C)c1 : 85%

The reported value for Br.CCn1cc(NC(=O)c2cc(NC=O)cn2C)cc1C(=O)Nc1cc(C(=O)NCCC(=N)N)n(C)c1 in terms of inhibition is 64%

---

Give inhibition for every item shown.
- Tested on: Nucleic Acid
- assayRemarks: Percent inhibition against DNA polymerase alpha when (dT)n-(rA)12-18 sequence was used as template at 10 uM concentration
- Format: nucleic-acid assay
Numbers only, in %.

Worked cases, answers included:
1) Br.Cn1cc(NC(=O)c2cc(NC(=O)c3cc(NC=O)cn3C)c[nH]2)cc1C(=O)NCCC(=N)N : 55
2) Br.CCn1cc(NC(=O)c2cc(NC(=O)c3cc(NC=O)cn3CC)cn2CC)cc1C(=O)NCCC(=N)N : 58
3) Br.CCn1cc(NC(=O)c2cc(NC=O)cn2C)cc1C(=O)Nc1cc(C(=O)NCCC(=N)N)n(C)c1 : 31
4) Br.CN(C)C(=N)CCNC(=O)c1cc(NC(=O)c2cc(NC(=O)c3cc(NC=O)cn3C)cn2C)cn1C : 56

Kindly consider the entry below.
The reported value for Br.Cn1cc(NC(=O)c2cc(NC(=O)c3cc(NC=O)c[nH]3)cn2C)cc1C(=O)NCCC(=N)N in terms of inhibition is 58

Reference for the values: ChEMBL document CHEMBL1122245
